system: PFTAIRE2; conditions: concentration: 1 μM, replicates: in singlicate; n = 1;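 note: KINOMEscan kinase panel screen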
# %Inh per entry
Answer with the number, then the unit.

Guide cases for %Inh, answers given:
{"COMPOUND": "COc1ccc2nc(-c3cccc(C)n3)nc(Nc3ccncc3)c2c1 [GSK204919]", "%Inh": "0%"}
{"COMPOUND": "Cc1cc(-c2ccc3c(c2)CC[C@@H](N[C@@H](C)c2ccccc2)C3)cnc1N.Cl [GW412617]", "%Inh": "6%"}
{"COMPOUND": "O=C(O)COc1ncnc2cc(-c3ccc4[nH]ncc4c3)sc12", "%Inh": "0%"}

Ask: // returns reported %Inh for input COC(=O)c1c(-c2ccccc2)c2cc(C(=O)O)ccc2c(=O)n1Cc1ccccc1
Reply: 0%

Ask: Now consider COc1cc2ncn(-c3cc(OCC4CCCO4)c(C(N)=O)s3)c2cc1OC (centres unmarked) [GSK204607] and answer again.
Reply: 1%

* * *

system: MAP4K5; conditions: concentration: 1 μM, replicates: in singlicate; n = 1
QUANTITY: %Inh (%)
Form entry: value (%) — number only.

Guide cases for %Inh, answers given:
{"MOLECULE": "Nc1nc(-c2nccs2)c(-c2ccnc3ccccc23)s1", "%Inh / %": 0}
{"MOLECULE": "Cl.NC(=O)c1cccc(Nc2nccc(Nc3ccc(Oc4cccc(Cl)c4)c(Cl)c3)n2)c1", "%Inh / %": 33}
{"MOLECULE": "Cc1cc(N2Cc3ccccc3C2)nc(Nc2ccc(S(=O)(=O)N3CCOCC3)cc2)n1.Cl", "%Inh / %": 0}

Now look at this one.
Ask: // returns reported %Inh for input CC(C)(C)c1ccc(C(=O)Nc2cn3cc(-c4cccnc4)ccc3n2)cc1
Reply: 0

* * *

system: HIPK1; conditions: concentration: 1 μM, replicates: in singlicate; n = 1
QUANTITY: %Inh (%)
Form entry: value (%) — number only.

Guide cases for %Inh, answers given:
{"COMPOUND": "Cc1cc(-c2ccc3c(c2)CC[C@@H](N[C@@H](C)c2ccccc2)C3)cnc1N.Cl [GW412617]", "TEST SYSTEM": "HIPK1", "DISPLAY UNIT": "%", "%Inh": 0}
{"COMPOUND": "Cn1ccc2ncnc(Oc3ccc(NC(=O)Nc4ccccc4)cc3)c21", "TEST SYSTEM": "HIPK1", "DISPLAY UNIT": "%", "%Inh": 25}
{"COMPOUND": "Cc1cccc(-c2cc(Nc3ccncc3)c3ccccc3n2)n1 [GSK223675]", "TEST SYSTEM": "HIPK1", "DISPLAY UNIT": "%", "%Inh": 0}
{"COMPOUND": "COc1cc(Nc2nccc(N3CCC(NC(=O)Nc4cc(C)ccc4C)C3)n2)cc(OC)c1OC (stereo not drawn) [GSK1379762]", "TEST SYSTEM": "HIPK1", "DISPLAY UNIT": "%", "%Inh": 0}

Ask: // returns reported %Inh for input O=C(Nc1n[nH]c2cc(-c3cccc(F)c3F)ccc12)C1CC1 [SB-733894]
Reply: 29

Ask: Now consider Cl.NC(=O)c1cccc(Nc2nccc(Nc3ccc(Oc4cccc(Cl)c4)c(Cl)c3)n2)c1 [GW659008] and answer again.
Reply: 0

Cited source: paper PMC5540273
